# Test system: HOP-62
# assay.notes: NCI tumour cell line growth inhibition, 48 h
The source made the active and inactive calls. Rule as the data show it: active = GI50 up to about 1.1 µM and inactive = higher.
measured.parameter: GI50

O=C1C2C=CC(n3[nH]c(=O)n(Cc4ccccc4)c3=O)CC2C(=O)N1c1ccc(Br)cc1 (stereo unspecified); > 100 µM (inactive)
CCCC(Sc1nc(N)nc2nc[nH]c12)C(=O)O (stereo unspecified); > 100 µM (inactive)
O=C(c1ccccc1)C1S(=O)(=O)OCCOS1(=O)=O; > 100 µM (inactive)
COC(=O)N/N=C(\C(=O)Nc1cccc([N+](=O)[O-])c1)c1nc2ccc([N+](=O)[O-])cc2nc1O; 26.4 µM (inactive)
COc1ccccc1/C=C\C(=O)C1COCN1 (stereo unspecified); 21.4 µM (inactive)

// each compound listed below needs its GI50
1. Cc1ccc(NC(=O)OCC(COc2ccc(Cl)cc2Cl)OC(=O)Nc2ccc(C)cc2)cc1 (stereo unspecified)
2. O=P1(c2ccccc2)c2ccccc2-c2ccccc21

Result:
["> 100 µM (inactive)", "> 100 µM (inactive)"]

// each compound listed below needs its GI50
1. Cc1ccc(N2CCN(CCC(=O)O)CC2)cc1
2. COc1ccc(CN/C=N/C(C#N)=C(\N)C#N)cc1OC
3. COc1ccc(COCCOCc2nc(C#N)c(N)o2)cc1
4. C[n+]1c2ccccc2c(NC(CS)C(=O)O)c2ccccc21 (stereo unspecified)

Result:
> 100 µM (inactive)
> 100 µM (inactive)
> 100 µM (inactive)
30.3 µM (inactive)

====

# Test system: Hs-578T
# assay.notes: NCI tumour cell line growth inhibition, 48 h
Calls of active or inactive are those of the source. No stated cut-off is given here; in the data, active = GI50 up to about 1.1 µM and inactive = higher.
Task for the reader: assign each of the following compounds its reported GI50.

Worked examples, 8 compounds total:
O=P1(c2ccccc2)c2ccccc2-c2ccccc21; > 100 µM (inactive)
CC(C)(Sc1cc(C(C)(C)C)c(O)c(C(C)(C)C)c1)Sc1cc(C(C)(C)C)c(O)c(C(C)(C)C)c1; > 100 µM (inactive)
C/C(=N\Nc1nc2ccccc2s1)c1ccc2ccccc2n1; 84.1 µM (inactive)
CCCCCCCC(CC(=O)NC(CO)C(=O)NC(CO)CC(C)C)OC(=O)CC(CCCCCCC)OC(=O)CC(CCCCCCC)OC1OC(C)C(O)C(OC2OC(C)C(O)C(OC(C)=O)C2O)C1O (stereo not drawn); 4.1 µM (inactive)
COC(=O)C1=C(C)C=C(N2CCOCC2)C(C(=O)OC)C1c1ccccc1 (stereo not drawn); > 10 µM (inactive)
C=C1CN2CC(=C)CN(C1)CS(=O)(=O)N1CC(=C)CN(CC(=C)C1)S(=O)(=O)N1CC(=C)CN(CC(=C)C1)S(=O)(=O)C2; 25.4 µM (inactive)
[N-]=[N+]=Nc1ccc2c(c1)Sc1ccccc1N2CCCCCl; 35.8 µM (inactive)
Cc1ccc(S(=O)(=O)NC(=N)N(C)N=O)cc1; > 100 µM (inactive)

// each compound listed below needs its GI50
1. Cc1ccc(C2NC(=N)NC3=C2CCOc2c3ccc3ccccc23)cc1 (stereo not drawn)
2. N=c1oc2c(Br)cc(Br)cc2cc1C(=O)Nc1ccccn1
3. [N-]=[N+]=C(C(=O)OCC#CCOC(=O)C(=[N+]=[N-])S(=O)(=O)c1ccccc1)S(=O)(=O)c1ccccc1
4. N=C(N)NNC(=O)C(=O)O
5. C[C@@]12C[C@@H](c3ccccc3O1)N1CCSC1=N2

Result:
1. 20.5 µM (inactive)
2. 64.4 µM (inactive)
3. > 10 µM (inactive)
4. > 100 µM (inactive)
5. > 100 µM (inactive)

// each compound listed below needs its GI50
1. CCCCS(=N)(=O)CC[C@H](N)C(=O)O (stereo partly drawn)
2. COc1cc(C(c2cc3c(cc2O)OCO3)N2CCCCC2)cc(OC)c1OC (stereo not drawn)

Result:
["> 2810 µM (inactive)", "14 µM (inactive)"]

// each compound listed below needs its GI50
1. COc1ccc(/C=C(/c2ccccc2)c2c(C)cc(C)c(/C(=C\c3ccc(OC)cc3)c3ccccc3)c2/N=N/c2cc(C)cc(C)c2)cc1
2. COc1cc2cc(C(=O)N3CC(CCl)c4c3cc([N+](=O)[O-])c3ccccc43)[nH]c2c(OC)c1OC (stereo not drawn)
3. Cc1cc(C#N)c[n+](C)c1
4. CCN(CC)CC[S+]([O-])c1c2cc(OC)ccc2nc2ccc(OC)cc12 (stereo not drawn)

Result:
1. 22.5 µM (inactive)
2. > 45.1 µM (inactive)
3. > 100 µM (inactive)
4. 3.24 µM (inactive)

====

# Test system: A549
# assay.notes: NCI tumour cell line growth inhibition, 48 h
Activity calls are given as the source filed them. Rule as the data show it: active = GI50 up to about 1.1 µM and inactive = higher.
measured.parameter: GI50

Worked examples, 5 compounds total:
CC1=NN=C(N)N/C1=C\C(Sc1ccc(Cl)cc1)c1ccc(Cl)cc1Cl (stereo not given); 8.34 µM (inactive)
CC(C)c1cc(Cl)nc(Cl)n1; > 100 µM (inactive)
c1ccc([P+](CCSCCSCC[P+](c2ccccc2)(c2ccccc2)c2ccccc2)(c2ccccc2)c2ccccc2)cc1; > 100 µM (inactive)
CC(=O)Nc1ccc(-c2nnc(SCC(=O)Nc3cccc(Cl)c3)o2)cc1; 18.7 µM (inactive)
CCOC(=O)c1cc(-n2nnc3ccccc32)cn1C; > 10 µM (inactive)

// each compound listed below needs its GI50
1. CSc1ccccc1P(CCP(c1ccccc1SC)c1ccccc1SC)c1ccccc1SC
2. O=c1[nH]c(=O)n(C2OC(CO)C(O)C2O)cc1OCC(F)(F)F (stereo not given)
3. NCCCc1ccc2oc3ccccc3c2c1
4. COc1ccc(/C=C(/c2ccccc2)c2c(C)cc(C)c(/C(=C\c3ccc(OC)cc3)c3ccccc3)c2/N=N/c2cc(C)cc(C)c2)cc1
5. COc1ccc(C(=O)/C=C/c2ccc(OCC(=N)N)cc2)cc1OC
6. Cc1ccc2c(c1)NC(=O)CC(c1ccccc1)=N2
7. COc1ccc(CN/C=N/C(C#N)=C(\N)C#N)cc1OC
8. c1ccc2cc(OCC3CO3)c(OCC3CO3)cc2c1 (stereo not given)

Result:
1. 3.96 µM (inactive)
2. > 100 µM (inactive)
3. 17.1 µM (inactive)
4. 14.6 µM (inactive)
5. 5.97 µM (inactive)
6. 81.7 µM (inactive)
7. > 100 µM (inactive)
8. 3.68 µM (inactive)

// each compound listed below needs its GI50
1. CCC/C(Cl)=N/OC(NC(=O)OCC)(C(F)(F)F)C(F)(F)F
2. CCN(CC)CC[S+]([O-])c1c2cc(OC)ccc2nc2ccc(OC)cc12 (stereo not given)

Result:
> 100 µM (inactive)
24.9 µM (inactive)

// each compound listed below needs its GI50
1. O=C1CCC2(CC1CCSc1ccccc1)OCCO2 (stereo not given)
2. COc1ccc2[nH]c(C(O)(Cc3cccnc3)Cc3cccnc3)cc2c1
3. c1ccc(CN2C3C4N(Cc5ccccc5)C2C2N(Cc5ccccc5)C(C(N2Cc2ccccc2)N4Cc2ccccc2)N3Cc2ccccc2)cc1
4. Cn1nc2ccc3nccc(N4CCN(CCO)CC4)c3c2n1
5. COC1(CC[C@@H](C)COC2OC(CO)C(O)C(O)C2O)O[C@H]2C[C@H]3[C@@H]4CC=C5C[C@@H](OC6OC(CO)C(OC7OC(C)C(O)C(O)C7O)C(O)C6OC6OC(C)C(O)C(O)C6O)CC[C@]5(C)[C@H]4CC[C@]3(C)[C@H]2[C@@H]1C (stereo not given in full)

Result:
["> 100 µM (inactive)", "> 100 µM (inactive)", "> 100 µM (inactive)", "> 100 µM (inactive)", "2 µM (inactive)"]

====

# System: OVCAR-5
# assay.notes: NCI tumour cell line growth inhibition, 48 h
Activity calls are given as the source filed them. No stated cut-off is given here; in the data, active = GI50 up to about 1.1 µM and inactive = higher.
Allowed answers: active, inactive

COc1c(-c2ccc(O)c(O)c2)oc2c(O)c(O)cc(O)c2c1=O; inactive

Query: Hey, what did the test say about Cc1ccc(C)c(N2C(=O)C(=O)c3c(C)ccc(C)c32)c1 ?
Result: inactive

Query: Hey, what did the test say about N#CC(C#N)=c1ccc(=C2NCC3CCCN23)cc1 (stereo not given) ?
Result: inactive

====

# Test system: NCI-H23
# assay.notes: NCI tumour cell line growth inhibition, 48 h
The source made the active and inactive calls. No stated cut-off is given here; in the data, active = GI50 up to about 1.1 µM and inactive = higher.
measured.parameter: GI50

Worked examples, 3 compounds total:
NC(=S)N1N=C2c3ccccc3CC[C@@H]2[C@@H]1c1ccccc1; 4.68 µM (inactive)
C=C1C(=O)CC2C1CC(=O)/C(C)=C/CCC(C)(O)C2O (stereo unspecified); 8.17 µM (inactive)
CC(=O)N1CCN(C=S)CC1; > 100 µM (inactive)

// each compound listed below needs its GI50
1. Cc1ccc2c(ccc(/C=C\c3cc(C)c4cccnc4c3O)[n+]2C)c1
2. OCC(O)C1OC2CC1Nc1ccccc1N2 (stereo unspecified)
3. O=C1Nc2cccc(Cl)c2/C1=C\c1c(Cl)nc2sccn12
4. O=C1c2cc([N+](=O)[O-])ccc2-c2ccc3c4ccc5c6c(ccc(c7ccc1c2c73)c64)C(=O)c1cc([N+](=O)[O-])ccc1-5
5. COc1cc2c(c(OC)c1OC)C(=O)[C@H]1OC(=O)N[C@@H]21
6. CC(=O)NC1=C(Nc2ccc(C)cc2)C(=O)c2ccccc2C1=O
7. COC(=O)CC(=O)OC
8. NC(=O)c1cc2ccccc2o/c1=N/O

Result:
1: 2.67 µM (inactive); 2: > 100 µM (inactive); 3: 21.7 µM (inactive); 4: > 100 µM (inactive); 5: > 100 µM (inactive); 6: 8.02 µM (inactive); 7: > 100 µM (inactive); 8: > 100 µM (inactive)
